Measured pEC50 by item
Test system: RSV Long strain
Experiment: Viral cytopathic effect (CPE) assay, RSV Long strain
Type: cell-based, Respiratory Syncytial Virus
Details: human respiratory syncytial virus, 144 h, cell viability after 6 days (Cell Counting kit-8)
Experimental: EC50: the concentration of a compound where 50% of its maximal protection effect against viral induced CPE is observed LongStrain: an A subtype RSV strain obtained from ATCC with catalog number VR-26 To measure anti-RSV activity of compounds, 96-well plates are seeded with 6×10^3 cells per well in Dulbecco's modified Eagle's medium (DMEM) containing 10% fetal bovine serum (FBS). […] The viability of cells is assessed after 6 days using Cell Counting kit-8 (Dojindo Molecular Technologies). […]
In textbook form, pEC50 equals minus log to base ten of the concentration in mol/L.

Completed entries (count: 2):
COC(=O)NCCCn1c(CN2C(=O)C3(CC3)c3ccncc32)cc2cc(Cl)ccc21 :: 7.70
O=C1N(Cc2cc3cc(Cl)cnc3n2CCC2CS(=O)(=O)C2)c2cnccc2C12CC2 :: 7.54

Enquiry: Return pEC50 measured with RSV Long strain given this molecule: CS(=N)(=O)CCCn1c(CN2C(=O)C3(CC3)c3ccncc32)cc2cc(Cl)ccc21 (stereo not shown)
Return: 8.22

Enquiry: // same read-out, input: O=C1N(Cc2cc3cc(Cl)ccc3n2CCN2CCCS2(=O)=O)c2cnccc2C12CC2
Return: 7.46

Enquiry: // same read-out, input: CC(=O)N=S(C)(=O)CCn1c(CN2C(=O)C3(CC3)c3ccncc32)cc2cc(Cl)ccc21 (stereo not shown)
Return: 7.60

Enquiry: // same read-out, input: CS(=O)(=O)CCCn1c(CN2C(=O)C3(CC3)c3ccncc32)cc2cc(Cl)ccc21
Return: 8.52

Enquiry: // same read-out, input: CCS(=O)(=O)CCc1c(CN2C(=O)C3(CC3)c3cccnc32)[nH]c2cc(Cl)ccc12
Return: 8.05

Enquiry: // same read-out, input: CS(=O)(=O)CCn1c(CN2C(=O)C3(CC3)c3ccncc32)cc2cc(Cl)cnc21
Return: 7.56

Enquiry: // same read-out, input: O=C1N(Cc2cc3cc(Cl)ccc3n2CCCS(=O)(=O)N2C[C@H]3C[C@@H]2CN3)c2cnccc2C12CC2
Return: 7.72
